Source of measurements: patent US12599580B2

Test: Phase 1 study, food effect (fed and fasted state), single oral dose
Assay type: in vivo, healthy subjects (humans)
Settings: male, human, plasma, po, 100 mg, Fasted; single oral dose 100 mg API
ENDPOINT: Cmax (ng/mL)
Write the value in ng/mL as a bare number.

Prompt: Item CC/C=C\C/C=C\C/C=C\C/C=C\C/C=C\CCCCOC(CC)C(=O)O (stereo not shown) has what recorded Cmax?
Completion: 2800

----------
Experiment: Phase 1 study, food effect (fed and fasted state), single oral dose
Format: in vivo, healthy subjects (humans)
Conditions: both sexes, human, plasma, oral, healthy male and female subjects receiving single doses; read-out: mean Tmax
ENDPOINT: Tmax

Prompt: Item CC/C=C\C/C=C\C/C=C\C/C=C\C/C=C\CCCCOC(CC)C(=O)O (stereo not shown) [API] has what recorded Tmax?
Completion: 1 to 2 h
